Target Or System: soluble cyno CD74 (cyno)
Sequence (P04233 other isoform, or with tags, fused parts or gaps): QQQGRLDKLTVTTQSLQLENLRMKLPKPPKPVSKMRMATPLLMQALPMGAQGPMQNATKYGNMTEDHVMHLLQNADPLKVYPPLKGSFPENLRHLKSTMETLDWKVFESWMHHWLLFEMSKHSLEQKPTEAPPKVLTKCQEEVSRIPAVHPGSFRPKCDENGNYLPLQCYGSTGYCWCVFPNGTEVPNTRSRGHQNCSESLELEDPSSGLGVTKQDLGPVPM
Assay Info: SPR, Biacore 8K; IgG captured by anti-IgG Fc, soluble CD74 as analyte; 1:1 model, apparent kinetics
Observable: koff (s⁻¹)
The reply should contain only the number, in s⁻¹.

Below: 2 binders and their reported koff.
Input VHmil x VK1aNQ (antibody, V domains shown, Tested as IgG; also called VHmil × VK1aNQ; hLL1 heavy chain with hzLL1-Vk1a (NQ) light chain) VH: QVQLQQSGSELKKPGASVKVSCKASGYTFTNYGVNWIKQAPGQGLQWMGWINPNTGEPTFDDDFKGRFAFSLDTSVSTAYLQISSLKADDTAVYFCSRSRGKNEAWFAYWGQGTLVTVSS VL: DIVMTQTPLSLPVTPGEPASISCRSSQSLVHRNQNTYLHWYLQKPGQSPQLLIYTVSNRFSGVPDRFSGSGSGTDFTLKISRVEAEDVGVYFCSQSSHVPPTFGQGTKLEIK . Output koff: 0.00062

Input VHmil x VK1bNQ (antibody, V domains shown, Tested as IgG; also called VHmil × VK1bNQ; hLL1 heavy chain with hzLL1-Vk1b (NQ) light chain) VH: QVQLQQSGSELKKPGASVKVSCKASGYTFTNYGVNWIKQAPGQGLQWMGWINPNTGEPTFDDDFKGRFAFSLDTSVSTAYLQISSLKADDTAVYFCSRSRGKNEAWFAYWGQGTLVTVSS VL: DVVMTQSPLSLPVTLGQPASISCRSSQSLVHRNQNTYLHWYQQRPGQSPRLLIYTVSNRFSGVPDRFSGSGSGTDFTLKISRVEAEDVGVYFCSQSSHVPPTFGQGTKLEIK . Output koff: 0.00058

Further cases:
Input Mil_HCx hzVk1b (antibody, V domains shown, Tested as IgG; also called hLL1 heavy chain with hzLL1-Vk1b light chain) VH: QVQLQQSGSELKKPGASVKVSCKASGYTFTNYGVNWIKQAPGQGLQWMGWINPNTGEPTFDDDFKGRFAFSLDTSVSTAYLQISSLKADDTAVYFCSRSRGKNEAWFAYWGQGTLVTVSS VL: DVVMTQSPLSLPVTLGQPASISCRSSQSLVHRNGNTYLHWYQQRPGQSPRLLIYTVSNRFSGVPDRFSGSGSGTDFTLKISRVEAEDVGVYFCSQSSHVPPTFGQGTKLEIK . Output koff: 0.00058

Value source: patent US20230081720A1
